- TARGET OR SYSTEM: hFIIa (Homo sapiens)
RECORDED METRIC: IC50

Incoming: Supply recorded IC50 for COc1nn([C@@H](Cc2ccccc2)C(=O)Nc2ccc(C(=O)O)cc2)c(=O)cc1-c1cc(Cl)ccc1C(C)=O [Example 19] here.
Outgoing: > 100 µM

---

pIC50: −log10 of the molar value.
pIC50 tested on UniProt P08684: recorded values
Sequence (P08684 whole entry): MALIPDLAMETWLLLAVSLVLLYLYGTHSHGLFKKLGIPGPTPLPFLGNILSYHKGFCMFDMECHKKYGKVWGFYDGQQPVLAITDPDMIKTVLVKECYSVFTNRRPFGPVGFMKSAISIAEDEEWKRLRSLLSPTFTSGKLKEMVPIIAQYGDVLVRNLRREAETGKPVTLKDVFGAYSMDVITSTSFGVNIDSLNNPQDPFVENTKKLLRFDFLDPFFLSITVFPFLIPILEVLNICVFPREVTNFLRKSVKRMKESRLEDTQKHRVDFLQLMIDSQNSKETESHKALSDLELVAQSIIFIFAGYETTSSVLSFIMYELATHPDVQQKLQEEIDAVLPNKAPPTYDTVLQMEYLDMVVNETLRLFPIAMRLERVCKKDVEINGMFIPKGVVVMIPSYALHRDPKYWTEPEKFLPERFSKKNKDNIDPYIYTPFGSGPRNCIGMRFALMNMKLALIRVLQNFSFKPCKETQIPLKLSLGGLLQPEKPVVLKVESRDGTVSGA

[[record]]
smi = "CCC(=O)c1ccc(Cl)cc1-c1cc(=O)n([C@@H](Cc2ccccc2)C(=O)Nc2ccc(C(=O)O)cc2)nc1OC"
experimental_value = "< 4.30"


Could you now look at the following compound, please?
Incoming: Look up and report pIC50, with UniProt P08684 as system, for COc1nn([C@@H](Cc2ccccc2)C(=O)Nc2ccc(C(=O)O)cc2)c(=O)cc1-c1cc(Cl)ccc1C(C)=O
Outgoing: < 4.30

---

- TARGET OR SYSTEM: UniProtKB P20813
- Sequence (P20813 whole entry): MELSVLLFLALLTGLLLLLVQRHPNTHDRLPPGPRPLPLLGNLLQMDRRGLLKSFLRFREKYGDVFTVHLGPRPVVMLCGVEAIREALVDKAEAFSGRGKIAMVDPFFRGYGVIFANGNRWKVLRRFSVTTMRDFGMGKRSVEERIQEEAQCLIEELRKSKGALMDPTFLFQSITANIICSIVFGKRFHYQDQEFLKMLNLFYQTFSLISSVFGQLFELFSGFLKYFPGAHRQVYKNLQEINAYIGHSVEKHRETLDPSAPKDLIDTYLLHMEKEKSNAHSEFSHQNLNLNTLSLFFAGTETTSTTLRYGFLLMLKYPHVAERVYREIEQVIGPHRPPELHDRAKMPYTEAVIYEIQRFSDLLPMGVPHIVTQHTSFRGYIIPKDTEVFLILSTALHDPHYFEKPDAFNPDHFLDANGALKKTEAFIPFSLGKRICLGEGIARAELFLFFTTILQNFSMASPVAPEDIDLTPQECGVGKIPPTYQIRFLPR
pIC50: −log10 of the molar value.
RECORDED METRIC: pIC50

Incoming: Supply measured pIC50 of COc1nn([C@@H](Cc2ccccc2)C(=O)Nc2ccc(C(=O)O)cc2)c(=O)cc1-c1cc(Cl)ccc1C(C)=O in your reply.
Outgoing: < 4.30

---

- EXPERIMENT SUMMARY: Beagle dog pharmacokinetics
- Type: in vivo
- CONDITION CONTEXT: male, plasma, po, ig
Kindly state Tmax for each of the entries shown.
One number for each entry, in min.

[[record]]
smi = "CCC(=O)c1ccc(Cl)cc1-c1cc(=O)n([C@@H](Cc2ccccc2)C(=O)Nc2ccc(C(=O)O)cc2)nc1OC"
experimental_value = 15


Read the next record carefully.
Incoming: Look up and report measured Tmax for this entry: COc1nn([C@@H](Cc2ccccc2)C(=O)Nc2ccc(C(=O)O)cc2)c(=O)cc1-c1cc(Cl)ccc1C(C)=O
Outgoing: 75

---

- EXPERIMENT SUMMARY: Beagle dog pharmacokinetics
- Type: in vivo
- CONDITION CONTEXT: male, plasma, po, ig
Would you kindly list half-life for each of these compounds?
One number for each entry, in h.

[[record]]
compound = "CCC(=O)c1ccc(Cl)cc1-c1cc(=O)n([C@@H](Cc2ccccc2)C(=O)Nc2ccc(C(=O)O)cc2)nc1OC [Example 32]"
experimental_value = 4.51


Now look at this one.
Incoming: Read the entry COc1nn([C@@H](Cc2ccccc2)C(=O)Nc2ccc(C(=O)O)cc2)c(=O)cc1-c1cc(Cl)ccc1C(C)=O [Example 19] and write its reported half-life.
Outgoing: 3.6

---

- EXPERIMENT SUMMARY: Rat pharmacokinetics
- Format: in vivo, SD rats
- CONDITION CONTEXT: male, SD, plasma, iv, read-out: Vss
Exercise: state measured Vd for each of the molecules provided.
One number for each entry, in L/kg.

[[record]]
molecule = "COc1nn([C@@H](Cc2ccccc2)C(=O)Nc2ccc(C(=O)O)cc2)c(=O)cc1-c1cc(Cl)ccc1C(C)=O [Example 19]"
experimental_value = 0.269


List the reported Vd of each molecule below.
1. CC(=O)c1ccc(Cl)cc1-c1cc(=O)n([C@@H](Cc2ccccc2)C(=O)Nc2ccc(C(=O)O)cc2)nc1OC1COC1 [Example 24]
2. CC(=O)c1ccc(Cl)cc1-c1cc(=O)n([C@@H](Cc2ccccc2)C(=O)Nc2ccc(C(=O)O)cc2)nc1OC(F)F [Example 25]
3. COCCOc1nn([C@@H](Cc2ccccc2)C(=O)Nc2ccc(C(=O)O)cc2)c(=O)cc1-c1cc(Cl)ccc1C(C)=O [Example 21]

Outgoing:
1.14
0.915
0.277

Data origin, for the record: patent US20230027295A1
